Values were extracted from ChEMBL document CHEMBL5046273.

assay: Tmax in Swiss Webster mouse liver at 40 mg/kg, ip by LC-MS/MS analysis; assay type: ADME, organism-based
Assay Readout: Tmax (min)

> print(dat)
                                   molecule  value.unit  experimental.value
1  CC(C)(C)OC(=O)CC(O)/C=C/CCSSCC/C=C/C(O)CC(=O)OC(C)(C)C (stereo unspecified)         min                  10

----------
experiment: Elimination rate in Swiss Webster mouse blood at 40 mg/kg, ip by LC-MS/MS analysis; type: ADME, organism-based
Assay Readout: k el (s⁻¹)

> print(dat)
                                   molecule  assay.readout  experimental.value
1  CC(C)(C)OC(=O)CC(O)/C=C/CCSSCC/C=C/C(O)CC(=O)OC(C)(C)C (stereo unspecified)           k el            0.000367

----------
target: Histone deacetylase 3 (Homo sapiens, UniProt O15379); assay: Inhibition of HDAC3 in human DU-145 cells assessed as increase in histone H3 acetylation after 24 hrs by immunofluorescence microscopy
Sequence (O15379 whole entry): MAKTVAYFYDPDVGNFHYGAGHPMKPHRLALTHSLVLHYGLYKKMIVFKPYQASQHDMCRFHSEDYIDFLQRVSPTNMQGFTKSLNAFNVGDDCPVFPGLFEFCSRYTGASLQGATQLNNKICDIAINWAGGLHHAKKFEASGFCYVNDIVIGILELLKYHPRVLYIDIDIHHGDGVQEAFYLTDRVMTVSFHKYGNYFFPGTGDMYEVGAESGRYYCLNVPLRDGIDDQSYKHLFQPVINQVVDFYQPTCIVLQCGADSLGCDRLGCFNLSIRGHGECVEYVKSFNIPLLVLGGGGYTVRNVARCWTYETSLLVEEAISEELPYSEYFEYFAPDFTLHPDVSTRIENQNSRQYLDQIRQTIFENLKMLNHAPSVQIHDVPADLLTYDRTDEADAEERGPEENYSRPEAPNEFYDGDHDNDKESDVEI
Assay Readout: IC50 (µM)

> print(dat)
                                   compound  assay.readout  experimental.value
1  CC(C)(C)OC(=O)CC(O)/C=C/CCSSCC/C=C/C(O)CC(=O)OC(C)(C)C (stereo unspecified)           IC50                   8

----------
test: Tmax in Swiss Webster mouse blood at 40 mg/kg, ip by LC-MS/MS analysis; assay type: ADME, organism-based
Assay Readout: Tmax (min)

> print(dat)
                                   compound  value.unit  experimental.value
1  CC(C)(C)OC(=O)CC(O)/C=C/CCSSCC/C=C/C(O)CC(=O)OC(C)(C)C (stereo unspecified)         min                  10

----------
target: Protein deacetylase HDAC6 (Homo sapiens); test: Inhibition of HDAC6 in human DU-145 cells assessed as increase in histone H3 acetylation after 24 hrs by immunofluorescence microscopy
Sequence (Q9UBN7 whole entry): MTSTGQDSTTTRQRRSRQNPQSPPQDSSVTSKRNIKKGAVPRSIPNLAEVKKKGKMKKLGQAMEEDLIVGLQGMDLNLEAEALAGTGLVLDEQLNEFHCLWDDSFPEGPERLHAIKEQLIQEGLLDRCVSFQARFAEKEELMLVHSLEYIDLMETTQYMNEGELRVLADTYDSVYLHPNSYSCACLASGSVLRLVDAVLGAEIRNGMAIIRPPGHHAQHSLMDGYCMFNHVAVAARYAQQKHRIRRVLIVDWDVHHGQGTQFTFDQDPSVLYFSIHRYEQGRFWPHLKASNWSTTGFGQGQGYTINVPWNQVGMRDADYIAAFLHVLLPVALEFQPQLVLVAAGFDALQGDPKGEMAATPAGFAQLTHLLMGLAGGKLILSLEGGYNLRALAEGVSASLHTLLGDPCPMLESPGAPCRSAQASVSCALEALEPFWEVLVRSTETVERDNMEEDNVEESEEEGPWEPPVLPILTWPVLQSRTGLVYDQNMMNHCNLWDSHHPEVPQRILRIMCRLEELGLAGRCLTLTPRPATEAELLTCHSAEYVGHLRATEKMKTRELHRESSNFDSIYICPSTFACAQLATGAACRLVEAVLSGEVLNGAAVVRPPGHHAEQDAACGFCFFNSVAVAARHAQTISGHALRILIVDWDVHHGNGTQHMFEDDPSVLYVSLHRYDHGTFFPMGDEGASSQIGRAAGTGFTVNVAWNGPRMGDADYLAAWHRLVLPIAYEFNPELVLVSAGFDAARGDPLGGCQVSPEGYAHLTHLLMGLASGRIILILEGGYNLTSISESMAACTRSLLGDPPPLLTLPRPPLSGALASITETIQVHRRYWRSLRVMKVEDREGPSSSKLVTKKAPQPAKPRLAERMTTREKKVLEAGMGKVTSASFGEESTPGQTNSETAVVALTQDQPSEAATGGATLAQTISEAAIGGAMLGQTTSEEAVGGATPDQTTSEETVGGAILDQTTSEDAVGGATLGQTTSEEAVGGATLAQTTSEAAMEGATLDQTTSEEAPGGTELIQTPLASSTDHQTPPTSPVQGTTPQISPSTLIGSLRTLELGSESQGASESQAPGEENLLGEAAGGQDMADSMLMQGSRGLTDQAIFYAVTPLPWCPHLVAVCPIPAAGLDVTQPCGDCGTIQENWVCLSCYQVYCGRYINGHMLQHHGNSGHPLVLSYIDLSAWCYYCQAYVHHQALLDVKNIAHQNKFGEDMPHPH
Assay Readout: IC50 (µM)

> print(dat)
                                   molecule  experimental.value
1  CC(C)(C)OC(=O)CC(O)/C=C/CCSSCC/C=C/C(O)CC(=O)OC(C)(C)C (stereo unspecified)                  12

----------
molecular target: Histone deacetylase 2 (Homo sapiens); assay: Inhibition of recombinant human full-length HDAC2 preincubated for 20 mins with DTT followed by enzyme addition and measured after 10 mins by Glo-luminescence assay
Sequence (Q92769 whole entry): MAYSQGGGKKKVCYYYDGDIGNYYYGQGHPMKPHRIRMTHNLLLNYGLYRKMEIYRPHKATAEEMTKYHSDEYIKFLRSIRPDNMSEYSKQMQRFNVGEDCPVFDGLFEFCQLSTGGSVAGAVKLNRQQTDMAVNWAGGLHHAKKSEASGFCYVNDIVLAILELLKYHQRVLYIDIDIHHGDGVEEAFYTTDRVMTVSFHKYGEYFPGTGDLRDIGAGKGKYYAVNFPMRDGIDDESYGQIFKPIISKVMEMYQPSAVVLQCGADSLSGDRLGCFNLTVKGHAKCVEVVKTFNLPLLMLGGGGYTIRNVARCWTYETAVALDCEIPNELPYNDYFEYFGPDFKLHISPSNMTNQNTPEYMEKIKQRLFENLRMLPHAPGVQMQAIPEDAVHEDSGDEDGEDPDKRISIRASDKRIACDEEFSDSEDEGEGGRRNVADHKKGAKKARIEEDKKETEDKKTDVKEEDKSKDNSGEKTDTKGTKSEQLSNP
pIC50: −log10 of the molar value.
Assay Readout: pIC50

> print(dat)
                                   compound  assay.readout  experimental.value
1  CCCC[C@@H](NC(=O)CC(O)/C=C/CCSSCC/C=C/C(O)CC(=O)N[C@H](CCCC)C(=O)O)C(=O)O (stereo partly specified)          pIC50                4.96
2  O=C(O)CC(O)/C=C/CCSSCC/C=C/C(O)CC(=O)O (stereo unspecified)          pIC50                4.55
3  CC(C)(C)OC(=O)CC(O)/C=C/CCSSCC/C=C/C(O)CC(=O)OC(C)(C)C (stereo unspecified)          pIC50                5.00
4  O=C(CC(O)/C=C/CCSSCC/C=C/C(O)CC(=O)Nc1ccccc1)Nc1ccccc1 (stereo unspecified)          pIC50                4.60
5  CCCC[C@@H](NC(=O)CC(O)/C=C/CCSSCC/C=C/C(O)CC(=O)N[C@H](CCCC)C(=O)OC)C(=O)OC (stereo partly specified)          pIC50                4.77
6  CC(C)(C)NC(=O)CC(O)/C=C/CCSSCC/C=C/C(O)CC(=O)NC(C)(C)C (stereo unspecified)          pIC50                4.74
